These entries and their values trace back to paper PMC6150025.

For each entry below, report its Ki value.
Target system: PTP1B (Homo sapiens, UniProt P18031)
Sequence (P18031 1-321): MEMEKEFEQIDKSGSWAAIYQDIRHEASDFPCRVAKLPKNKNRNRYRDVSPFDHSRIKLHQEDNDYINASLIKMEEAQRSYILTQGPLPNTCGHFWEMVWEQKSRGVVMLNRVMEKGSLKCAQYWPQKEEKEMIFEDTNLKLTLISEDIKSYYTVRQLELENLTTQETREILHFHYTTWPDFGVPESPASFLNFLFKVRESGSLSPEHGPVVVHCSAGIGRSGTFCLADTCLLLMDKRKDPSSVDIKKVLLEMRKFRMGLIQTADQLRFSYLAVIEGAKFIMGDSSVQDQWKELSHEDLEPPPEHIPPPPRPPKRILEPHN
Give bare numbers, in µM.

- Given smiles: "CSc1nc2cc(Cl)c(C(=O)Nc3nc4cc(Oc5cccc(Cl)c5Cl)c(Cl)cc4[nH]3)cc2n1C"
  Ki (µM): 5.2

# get_value(readout='Ki', item= O=C(Nc1nc2cc(Oc3cccc(Cl)c3Cl)c(Cl)cc2[nH]1)C(F)(F)F )
41.3
